This collection of values is drawn from patent US20260116991A1.

Parameter: OD450 nm. Scope: all listed entries.
# Target under test: T1, human GPC3-His protein (human, UniProt P51654 25-559)
# T1 construct: Bought protein; also called human GPC3 protein; not shown: His tag
# Assay explanation: ELISA, coated human GPC3, antibody 0.0001 nM
The reply should contain only the number, in OD450.

{"columns": ["Binder", "Experimental endpoint", "Result unit", "Experimental value"],
 "data": [
  ["F1.110.24 human-murine chimeric antibody (antibody, human IgG1, kappa, V domains shown) VH: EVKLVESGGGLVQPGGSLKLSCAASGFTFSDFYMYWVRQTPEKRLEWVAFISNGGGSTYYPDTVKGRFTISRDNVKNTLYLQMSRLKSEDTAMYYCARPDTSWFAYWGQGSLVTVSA VL: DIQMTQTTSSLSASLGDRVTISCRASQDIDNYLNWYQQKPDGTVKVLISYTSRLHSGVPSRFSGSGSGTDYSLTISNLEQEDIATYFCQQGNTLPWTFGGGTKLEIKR", "OD450 nm", "OD450", 0.08]
]}

Look up OD450 nm for this binder: F3.81.19 human-murine chimeric antibody (antibody, human IgG1, kappa, V domains shown) VH: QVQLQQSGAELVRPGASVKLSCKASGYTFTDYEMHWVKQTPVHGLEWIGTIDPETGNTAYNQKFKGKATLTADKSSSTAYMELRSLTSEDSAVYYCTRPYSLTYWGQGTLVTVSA VL: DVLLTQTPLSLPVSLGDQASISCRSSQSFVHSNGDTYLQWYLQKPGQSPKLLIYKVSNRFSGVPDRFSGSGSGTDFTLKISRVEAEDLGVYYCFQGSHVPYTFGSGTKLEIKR
0.1
